TARGET: T1, Human c-Met-Flis-Fc ECD (human)
T1 construct: also called human c-Met extracellular domain (ECD)-Fc-Flis fusion; Human cMet-ECD-Fc-Flis
T1 sequence (chain, as listed by the source limits assumed): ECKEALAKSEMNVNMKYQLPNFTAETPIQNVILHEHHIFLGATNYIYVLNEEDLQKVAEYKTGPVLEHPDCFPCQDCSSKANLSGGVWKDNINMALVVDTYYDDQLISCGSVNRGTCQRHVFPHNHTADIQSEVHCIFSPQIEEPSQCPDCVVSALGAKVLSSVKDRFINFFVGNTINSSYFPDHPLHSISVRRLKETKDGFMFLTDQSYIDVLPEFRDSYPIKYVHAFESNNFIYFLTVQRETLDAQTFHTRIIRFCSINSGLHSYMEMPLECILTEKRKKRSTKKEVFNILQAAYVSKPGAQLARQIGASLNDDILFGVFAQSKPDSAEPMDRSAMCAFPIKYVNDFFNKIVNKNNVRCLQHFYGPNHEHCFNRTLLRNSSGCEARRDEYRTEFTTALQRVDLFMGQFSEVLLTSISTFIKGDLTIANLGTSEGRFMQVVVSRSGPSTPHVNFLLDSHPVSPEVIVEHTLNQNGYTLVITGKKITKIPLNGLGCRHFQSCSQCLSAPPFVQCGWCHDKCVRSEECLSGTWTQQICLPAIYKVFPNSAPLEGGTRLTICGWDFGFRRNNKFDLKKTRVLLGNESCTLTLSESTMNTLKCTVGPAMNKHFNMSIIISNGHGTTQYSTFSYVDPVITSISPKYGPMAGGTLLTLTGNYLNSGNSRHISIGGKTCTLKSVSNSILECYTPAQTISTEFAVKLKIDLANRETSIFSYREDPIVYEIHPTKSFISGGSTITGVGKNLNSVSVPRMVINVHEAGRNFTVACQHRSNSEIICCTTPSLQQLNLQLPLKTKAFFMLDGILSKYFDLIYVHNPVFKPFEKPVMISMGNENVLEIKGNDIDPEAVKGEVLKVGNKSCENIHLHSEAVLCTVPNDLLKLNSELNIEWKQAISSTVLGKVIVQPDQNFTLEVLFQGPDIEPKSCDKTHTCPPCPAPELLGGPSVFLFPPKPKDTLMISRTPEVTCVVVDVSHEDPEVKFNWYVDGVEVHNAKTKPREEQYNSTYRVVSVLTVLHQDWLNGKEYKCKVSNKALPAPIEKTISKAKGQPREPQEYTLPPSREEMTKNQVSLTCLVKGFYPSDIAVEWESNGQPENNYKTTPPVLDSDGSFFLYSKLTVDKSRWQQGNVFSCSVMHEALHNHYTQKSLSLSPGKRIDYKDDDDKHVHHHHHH
TEST SUMMARY: SPR Biacore, antibody captured, ECD-Fc analyte, 1:1 model
READOUT LABEL: koff (s⁻¹)
Write down the numeric answer in s⁻¹ and omit the unit.

Item D11-8B8 (antibody, human IgG2, kappa, V domains shown, Human engineered IgG2, kappa; expressed in HEK293 EBNA cells; also called Mab D11-8B8) VH: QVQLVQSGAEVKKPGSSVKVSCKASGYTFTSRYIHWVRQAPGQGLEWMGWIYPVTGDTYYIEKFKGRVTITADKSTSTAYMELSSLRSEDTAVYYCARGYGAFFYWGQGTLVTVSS VL: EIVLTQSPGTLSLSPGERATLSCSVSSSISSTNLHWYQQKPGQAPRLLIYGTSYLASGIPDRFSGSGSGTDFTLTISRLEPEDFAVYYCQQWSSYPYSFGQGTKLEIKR : provide koff
5e-05

Data provenance is patent US20100129369A1.
